Known protein stability index of a selection of variants
B1: NECAB1 (parent)
chain: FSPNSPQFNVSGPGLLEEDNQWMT

Variants of: B1
Assay: protein stability index of a GFP-peptide fusion (GPS, HEK-293T) (PSI 1-6); higher = more stable;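 note: lentivirally expressed fusions sorted by FACS into six bins by GFP to DsRed ratio, PSI derived from sequencing read proportions per bin multiplied by bin number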
Conditions: c terminus: a fixed tail appended
PROPERTY_LABEL: protein stability index

>>> value_measured("FSPNSPQFNVSGPGFLEEDNQWMT")
2.91
>>> value_measured("FSPNSPQFNVSGPGLLEEDNQYMT")
3.49
>>> value_measured("FSPNSPQFNVSGMGLLEEDNQWMT")
2.65
>>> value_measured("FSPNSPQFNVSGPGLLEEDNMWMT")
1.84
>>> value_measured("FSPNSPQFNVSGPSLLEEDNQWMT")
3.04
>>> value_measured("FSPNSPQSNVSGPGLLEEDNQWMT")
4
>>> value_measured("FSPNSPQFNVSGPGSLEEDNQWMT")
3.3
>>> value_measured("FSPNSPQFNVSGPGLLEEDNQWMM")
2.4
>>> value_measured("FSPNSPQFNVSGPFLLEEDNQWMT")
2.35
>>> value_measured("FSPNSPQFNVSGPGLLEEANQWMT")
2.11
>>> value_measured("FSPNSPQFNVSGPWLLEEDNQWMT")
1.96
>>> value_measured("FSPNSPQFNVSGPGLLTEDNQWMT")
2.36
>>> value_measured("FVPNSPQFNVSGPGLLEEDNQWMT")
2.66
>>> value_measured("FSPNSPQFNVSIPGLLEEDNQWMT")
2.42
>>> value_measured("FSPNSPQFNRSGPGLLEEDNQWMT")
3.38
>>> value_measured("FSPNSPQFNVSGPGLLKEDNQWMT")
1.97
>>> value_measured("FSPYSPQFNVSGPGLLEEDNQWMT")
2.33
>>> value_measured("FSPNSPQFNVSGPGLLEEDNLWMT")
2.08
>>> value_measured("FSPNSPQFNVSGPGLLEEDNQWHT")
2.8
>>> value_measured("FSPNSPQFNVSGPGLDEEDNQWMT")
3.94
>>> value_measured("FSPNSPQFNVIGPGLLEEDNQWMT")
2.9
>>> value_measured("FHPNSPQFNVSGPGLLEEDNQWMT")
2.17
>>> value_measured("FSPNSWQFNVSGPGLLEEDNQWMT")
4.26
>>> value_measured("FSPNSPQFNVSGPGLLGEDNQWMT")
2.49
>>> value_measured("FSPNSPQFNVSGPGLLEEDSQWMT")
2.68
>>> value_measured("FSPNSPQFNVSGPGLIEEDNQWMT")
2.91
>>> value_measured("FSPNSPQFNVSGPGLLEEDNNWMT")
1.84
>>> value_measured("FSPCSPQFNVSGPGLLEEDNQWMT")
2.26
>>> value_measured("FSPNSPQFNVSDPGLLEEDNQWMT")
3.13
>>> value_measured("FSPNSNQFNVSGPGLLEEDNQWMT")
2.56
>>> value_measured("FSPNSPQFNVSGPGLLEEDNGWMT")
2.54
>>> value_measured("FSPNSPQFNVSGPGLLEEDNQWAT")
3.66
>>> value_measured("FSQNSPQFNVSGPGLLEEDNQWMT")
3.26
>>> value_measured("FSPNSPIFNVSGPGLLEEDNQWMT")
2.11
>>> value_measured("FSPNSPQFNVSGPGLLEEDNAWMT")
2.45
>>> value_measured("FGPNSPQFNVSGPGLLEEDNQWMT")
2.08
>>> value_measured("FSPFSPQFNVSGPGLLEEDNQWMT")
2.4
>>> value_measured("FSPNSPQFNVSGPGLLEPDNQWMT")
1.84
>>> value_measured("FSPNSPQWNVSGPGLLEEDNQWMT")
1.43
>>> value_measured("QSPNSPQFNVSGPGLLEEDNQWMT")
4.7
>>> value_measured("FSPNSPQFNVSGPGTLEEDNQWMT")
3.25
>>> value_measured("FSPNSPYFNVSGPGLLEEDNQWMT")
1.72
>>> value_measured("FSPNSPQYNVSGPGLLEEDNQWMT")
3.43
>>> value_measured("FSPNSPQFNVSGPGLLEETNQWMT")
2.1
>>> value_measured("FSPNAPQFNVSGPGLLEEDNQWMT")
2.72
>>> value_measured("FSPNSPQFNVSGPGLFEEDNQWMT")
2.42
>>> value_measured("FSPNSPQFNVSGPGLLEEDNQWKT")
4.15
>>> value_measured("FSPWSPQFNVSGPGLLEEDNQWMT")
2.25
>>> value_measured("FSPNSPQTNVSGPGLLEEDNQWMT")
3.5
>>> value_measured("FSPNSPQFNVSGPGLLEEDNQWME")
3.92
>>> value_measured("FSPNSPQFNVSLPGLLEEDNQWMT")
2.47
>>> value_measured("FSPNSPQFNVTGPGLLEEDNQWMT")
2.79
>>> value_measured("CSPNSPQFNVSGPGLLEEDNQWMT")
3.13
>>> value_measured("FSPNSPQFNVKGPGLLEEDNQWMT")
2.44
>>> value_measured("TSPNSPQFNVSGPGLLEEDNQWMT")
4.11
>>> value_measured("FSPNSPVFNVSGPGLLEEDNQWMT")
2.22
>>> value_measured("FSPNSPEFNVSGPGLLEEDNQWMT")
3.88
>>> value_measured("FSPNSKQFNVSGPGLLEEDNQWMT")
2.5
>>> value_measured("FSPNSPQFNVSGPGLLEWDNQWMT")
2.14
>>> value_measured("FSPNMPQFNVSGPGLLEEDNQWMT")
3.66
>>> value_measured("FSPNSPQFNVSGPGLLEEDNQWRT")
3.08
>>> value_measured("FSPNSPQFNVSGPGLLEDDNQWMT")
2.91
>>> value_measured("FSPNSPQFNVSGPGLLEEDIQWMT")
2.24
>>> value_measured("FSLNSPQFNVSGPGLLEEDNQWMT")
2.87
>>> value_measured("FSPNSPQFNVSGPRLLEEDNQWMT")
2.63
>>> value_measured("FSPNSPQFNVSAPGLLEEDNQWMT")
2.85
>>> value_measured("FSPMSPQFNVSGPGLLEEDNQWMT")
2.45
>>> value_measured("WSPNSPQFNVSGPGLLEEDNQWMT")
3.85
>>> value_measured("FSPNSPQFNVSGRGLLEEDNQWMT")
2.79
>>> value_measured("FSPNSPQFNVSGPGLLEEDHQWMT")
2.62
>>> value_measured("FSGNSPQFNVSGPGLLEEDNQWMT")
2.2
>>> value_measured("FSPNSPQFNVSEPGLLEEDNQWMT")
3.12
>>> value_measured("FSPNSPQFNVSGPGLLEEDNFWMT")
1.87
>>> value_measured("FSPNSPQFNVSGPGLLEEDNQAMT")
3.96
>>> value_measured("FSPNSQQFNVSGPGLLEEDNQWMT")
2.48
>>> value_measured("FSPNSPQFNVSGPGLLEEDNIWMT")
1.95
>>> value_measured("FSPPSPQFNVSGPGLLEEDNQWMT")
3.53
>>> value_measured("FSPNGPQFNVSGPGLLEEDNQWMT")
2.72
>>> value_measured("FKPNSPQFNVSGPGLLEEDNQWMT")
3.63
>>> value_measured("FSYNSPQFNVSGPGLLEEDNQWMT")
2.62
>>> value_measured("FSMNSPQFNVSGPGLLEEDNQWMT")
3.22
>>> value_measured("FSPNSPQFNVSGPGLLECDNQWMT")
1.89
>>> value_measured("FSPNSPQFNVSGPGLLEEDNQSMT")
4.03
>>> value_measured("FSPTSPQFNVSGPGLLEEDNQWMT")
3.2
>>> value_measured("FSPNSPCFNVSGPGLLEEDNQWMT")
2
>>> value_measured("FSPNSPLFNVSGPGLLEEDNQWMT")
1.45
>>> value_measured("FSPNSPQFNVSGPGLLEEDNQWMP")
2.69
>>> value_measured("LSPNSPQFNVSGPGLLEEDNQWMT")
4.55
>>> value_measured("FSPNSHQFNVSGPGLLEEDNQWMT")
2.14
>>> value_measured("FSPNSPQFNCSGPGLLEEDNQWMT")
2.42
>>> value_measured("FSPNSPQFNASGPGLLEEDNQWMT")
3.5

src = the supplement of paper PMC10567573
